Sourced from patent US9510598B2

test system: Septoria tritici; experiment: In vivo preventive test on Septoria tritici (leaf spot on wheat); conditions: 500 ppm; wheat plants sprayed 24 hours before contamination; grading 21 to 28 days after contamination vs control plants
% of efficacy (protection) overview
Expressed in %, but write only the number.

Request: Given the molecule C#Cc1cnc2ccc(C3=NOC(C)(C(=O)Nc4cnn(C)c4)C3)cc2c1 (centres unmarked) , what is its reported % of efficacy (protection)?
Result: 100

Request: Given the molecule CC1(C(=O)NC2CCC2)CC(c2cc(Cl)c3ncc(Br)cc3c2)=NO1 (centres unmarked) , what is its reported % of efficacy (protection)?
Result: 83

Request: Given the molecule CC1(C(=O)NCc2ccc3ncsc3c2)CC(c2ccc3ncc(Br)cc3c2)=NO1 (centres unmarked) , what is its reported % of efficacy (protection)?
Result: 71

Request: Given the molecule C#Cc1cnc2c(C)cc(C3=NOC(C)(C(=O)NCC4COC(C)(C)O4)C3)cc2c1 (centres unmarked) , what is its reported % of efficacy (protection)?
Result: 100

Turning to the following molecule.
Request: Given the molecule C#Cc1cnc2ccc(C3=NOC(C)(C(=O)NCc4cnn(-c5ccccc5)n4)C3)cc2c1 (centres unmarked) , what is its reported % of efficacy (protection)?
Result: 71

* * *

% of efficacy (protection) overview
tested on: Botrytis cinerea; assay: In vivo preventive test on Botrytis cinerea (grey mould); settings: 500 ppm; gherkin plants sprayed 24 hours before contamination; grading 4-5 days after contamination vs control plants
Expressed in %, but write only the number.

Request: Given the molecule CCOCCCNC(=O)C1(OC)CC(c2cc(C)c3ncc(Br)cc3c2)=NO1 (centres unmarked) , what is its reported % of efficacy (protection)?
Result: 100

Request: Given the molecule CCOCCCNC(=O)C1(OC)CC(c2ccc3ncc(Br)cc3c2)=NO1 (centres unmarked) , what is its reported % of efficacy (protection)?
Result: 100

Request: Given the molecule COC1(C(=O)NC2CC2)CC(c2ccc3ncc(Br)cc3c2)=NO1 (centres unmarked) , what is its reported % of efficacy (protection)?
Result: 100

Request: Given the molecule CCn1cc(CNC(=O)C2(C)CC(c3cc(Cl)c4ncc(Br)cc4c3)=NO2)c(C)n1 (racemic) , what is its reported % of efficacy (protection)?
Result: 94

Request: Given the molecule C#Cc1cnc2ccc(C3=NOC(OC)(C(=O)NCC4COC(C)(C)O4)C3)cc2c1 (centres unmarked) , what is its reported % of efficacy (protection)?
Result: 100

Request: Given the molecule C#Cc1cnc2ccc(C3=NOC(C)(C(=O)NC)C3)cc2c1 (centres unmarked) , what is its reported % of efficacy (protection)?
Result: 100

Request: Given the molecule C#Cc1cnc2ccc(C3=NOC(C)(C(=O)NCc4cnn(C(C)C)c4)C3)cc2c1 (centres unmarked) , what is its reported % of efficacy (protection)?
Result: 100

Request: Given the molecule C=C(C)C1(C(=O)NC(C)C)CC(c2ccc3ncc(Br)cc3c2)=NO1 (centres unmarked) , what is its reported % of efficacy (protection)?
Result: 80

Request: Given the molecule C#Cc1cnc2ccc(C3=NOC(CC)(C(=O)NCc4cn(CCC)nc4C)C3)cc2c1 (racemic) , what is its reported % of efficacy (protection)?
Result: 93

Request: Given the molecule CC1(C(=O)NC2CC2C2CC2)CC(c2ccc3ncc(Br)cc3c2)=NO1 (centres unmarked) , what is its reported % of efficacy (protection)?
Result: 87

Turning to the following molecule.
Request: Given the molecule CC(NC(=O)C1(C)CC(c2ccc3ncc(Br)cc3c2)=NO1)C1=NOCC1 (centres unmarked) , what is its reported % of efficacy (protection)?
Result: 97
